assay: Plasma concentration in dog at 0.3 mg/kg, po after 480 min; type: ADME, organism-based, Canis lupus familiaris; design: dose 0.3 mg/kg, route oral
REPORTED_METRIC: concentration at 8 h (nM)

• O=C(O)CCCCCCCCCCCNC(=O)NC12CC3CC(CC(C3)C1)C2 = 0.86

====

Reported pIC50 values are given for each entry in this list.
target: Bifunctional epoxide hydrolase 2 (Mus musculus, UniProt P34914); test: Inhibition of mouse recombinant soluble Epoxide hydrolase
Sequence (P34914 whole entry): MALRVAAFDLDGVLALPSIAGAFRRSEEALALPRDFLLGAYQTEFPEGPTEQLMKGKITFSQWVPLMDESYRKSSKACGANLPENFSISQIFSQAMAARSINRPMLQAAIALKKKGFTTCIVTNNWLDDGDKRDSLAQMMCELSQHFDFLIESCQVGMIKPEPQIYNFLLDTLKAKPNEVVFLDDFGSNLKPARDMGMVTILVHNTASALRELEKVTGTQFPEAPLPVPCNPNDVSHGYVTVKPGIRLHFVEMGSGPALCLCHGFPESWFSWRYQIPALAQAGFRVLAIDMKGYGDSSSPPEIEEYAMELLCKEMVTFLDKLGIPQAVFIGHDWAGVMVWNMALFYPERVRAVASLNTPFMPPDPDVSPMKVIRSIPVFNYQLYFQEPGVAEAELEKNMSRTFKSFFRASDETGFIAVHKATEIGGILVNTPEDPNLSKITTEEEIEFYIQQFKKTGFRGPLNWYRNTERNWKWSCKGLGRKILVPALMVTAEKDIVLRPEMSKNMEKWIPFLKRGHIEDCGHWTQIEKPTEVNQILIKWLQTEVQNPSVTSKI
pIC50: −log10 of the molar value.
REPORTED_METRIC: pIC50

* O=C(O)CC[C@H](NC(=O)CCCCCNC(=O)NC1CCCCC1)C(=O)O | 4.29
* N=C(N)NCCC[C@H](NC(=O)CCCNC(=O)NC1CCCCC1)C(=O)O | 6.00
* O=C(CCCNC(=O)NC1CCCCC1)N[C@@H](Cc1ccccc1)C(=O)O | 5.80
* O=C(O)CCCCCNC(=O)NC1CCCCC1 | 4.62
* O=C(CCCNC(=O)NC12CC3CC(CC(C3)C1)C2)N[C@@H](Cc1ccc(O)cc1)C(=O)O | 4.74
* NC(N)=NCCC[C@H](NC(=O)CCCCCNC(=O)NC1CCCCC1)C(=O)O | 6.64
* COC(=O)CCCCCNC(=O)NC1CCCCC1 | 6.96
* CCC(C)[C@H](NC(=O)CCCNC(=O)NC12CC3CC(CC(C3)C1)C2)C(=O)O (stereo not given in full) | 5.89
* O=C(CCCNC(=O)NC12CC3CC(CC(C3)C1)C2)N[C@@H](CO)C(=O)O | 4.33
* CSCC[C@H](NC(=O)CCCNC(=O)NC12CC3CC(CC(C3)C1)C2)C(=O)O | 5.32
* O=C(CNC(=O)NC1CCCCC1)N[C@@H](Cc1cnc[nH]1)C(=O)O | 4.44
* O=C(NCCCC(=O)N1CCC[C@H]1C(=O)O)NC12CC3CC(CC(C3)C1)C2 | 4.09
* O=C(CCCNC(=O)NC12CC3CC(CC(C3)C1)C2)N[C@@H](Cc1ccccc1)C(=O)O | 6.10
* O=C(CCCNC(=O)NC12CC3CC(CC(C3)C1)C2)N[C@@H](Cc1c[nH]c2ccccc12)C(=O)O | 5.08
* N=C(N)NCCC[C@H](NC(=O)CCCNC(=O)NC12CC3CC(CC(C3)C1)C2)C(=O)O | 4.80
* O=C(CCCCCNC(=O)NC1CCCCC1)N[C@@H](Cc1ccccc1)C(=O)O (stereo in doubt; form 1) | 6.82
* CC(C)[C@H](NC(=O)CCCNC(=O)NC12CC3CC(CC(C3)C1)C2)C(=O)O | 4.52
* CC(C)C[C@H](NC(=O)CCCNC(=O)NC12CC3CC(CC(C3)C1)C2)C(=O)O | 4.82

====

target: Bifunctional epoxide hydrolase 2 (Homo sapiens, UniProt P34913); test: Inhibition of human recombinant soluble Epoxide hydrolase
Sequence (P34913 whole entry): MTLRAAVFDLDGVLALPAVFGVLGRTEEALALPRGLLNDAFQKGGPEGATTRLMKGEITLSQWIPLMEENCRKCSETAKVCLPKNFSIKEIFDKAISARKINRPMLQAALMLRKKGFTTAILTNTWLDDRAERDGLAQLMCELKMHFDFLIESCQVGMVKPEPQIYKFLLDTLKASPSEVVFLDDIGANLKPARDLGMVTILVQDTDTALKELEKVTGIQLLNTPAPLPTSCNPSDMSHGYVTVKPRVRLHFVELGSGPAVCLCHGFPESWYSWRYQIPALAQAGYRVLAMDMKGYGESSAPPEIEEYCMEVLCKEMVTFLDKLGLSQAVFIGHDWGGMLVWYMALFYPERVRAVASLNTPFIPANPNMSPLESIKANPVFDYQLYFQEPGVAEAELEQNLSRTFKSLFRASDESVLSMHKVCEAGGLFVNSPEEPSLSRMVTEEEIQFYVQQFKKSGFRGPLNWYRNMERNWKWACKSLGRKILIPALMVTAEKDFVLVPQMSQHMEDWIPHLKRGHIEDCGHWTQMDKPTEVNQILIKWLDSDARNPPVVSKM
Listed here: items and their measured IC50.
REPORTED_METRIC: IC50

- O=C(O)CC[C@H](NC(=O)CCCCCNC(=O)NC1CCCCC1)C(=O)O: > 100 µM
- N=C(N)NCCC[C@H](NC(=O)CCCNC(=O)NC1CCCCC1)C(=O)O: 25 µM
- O=C(O)CNC(=O)CCCCCNC(=O)NC12CC3CC(CC(C3)C1)C2: > 100 µM
- CC(O)[C@H](NC(=O)CCCCCNC(=O)NC12CC3CC(CC(C3)C1)C2)C(=O)O (some centres undefined): > 100 µM
- O=C(CCCCCNC(=O)NC1CCCCC1)N[C@@H](Cc1cnc[nH]1)C(=O)O: > 100 µM
- CSCC[C@H](NC(=O)CCCCCNC(=O)NC12CC3CC(CC(C3)C1)C2)C(=O)O: > 100 µM
- N=C(N)NCCC[C@H](NC(=O)CCCCCNC(=O)NC12CC3CC(CC(C3)C1)C2)C(=O)O: > 100 µM
- O=C(CCCCCNC(=O)NC1CCCCC1)N[C@@H](Cc1ccccc1)C(=O)N1CCC[C@H]1C(=O)O: 0.1 µM
- O=C(O)CC[C@H](NC(=O)CCCCCNC(=O)NC12CC3CC(CC(C3)C1)C2)C(=O)O: > 100 µM

Source: ChEMBL document CHEMBL1137287
